- assay_comment: DUSP6 inhibitors restoring Erk phosphorylation by chemical complementation, primary imaging in DUSP6-transfected HeLa (AID 609)
- condition_parameters: HeLa MKP-3 transfected, phospho-Erk imaging KS statistic; measured here: nuclear pErk red intensity z-score; at 10 µM; stronger effect = higher value; cells stimulated with TPA for 15 min
Entries are grouped by z-score into these classes: low range = under -0.4, mid range = from -0.4 up to 0.2, high range = 0.2 and over

> print(dat)
                                   compound    category
1  Cn1c(=O)c2c(nc(N3CCN(Cc4ccccc4)CC3)n2CC(=O)c2ccccc2)n(C)c1=O  high range
2  COCc1[nH]nc2c1C(c1ccnc3ccccc13)C(C#N)=C(N)O2 (stereo not given)   mid range

Here is another compound to look at.
stdin: # bin label for C=CCOc1nc2c(c(=O)n(C)c(=O)n2C)n1Cc1ccc(Cl)cc1
stdout: high range

====

- assay_comment: inhibitors of larval lipid processing in zebrafish, primary screen, whole organism, PED6 fluorescence, gall bladder and intestine (AID 686);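 further: larvae 5 to 7 days old with five fish per well; signal comes from phospholipase A2 cleavage of quenched PED6 carried via bile; overnight exposure to compound and PED6 before scoring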
- condition_parameters: Zebrafish larvae PED6 lipid processing, fluorescence scoring; screened at 20 µM (by protocol)
Activity calls are given as the source filed them.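 How the source made its calls: active means a full or partial loss of lipid-probe fluorescence in the fish gall bladder, intestine or both, judged by eye; inactive means no fluorescence loss, or compound toxic to the fish.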
Please answer using one outcome listed in active, inactive

Some entries whose results are on file:
> print(dat)
                                   molecule  category
1  CC1(C)Cc2c(sc3nc(SCC#N)n(C4CCCCC4)c(=O)c23)CO1  inactive
2  CCN1C(=O)CC(N2CCN(c3ccc(OC)cc3)CC2)C1=O (stereo unspecified)  inactive
3  C[C@]12CCC(=O)C=C1CC[C@@H]1[C@@H]2CC[C@@]2(C)[C@H]1CC[C@]2(O)C(=O)CO  inactive
4  Cc1noc(COc2ccccc2OCC(O)CNC(C)(C)C)n1 (stereo unspecified)  inactive
5  CC(C)C[C@H](NC(=O)[C@@H]1O[C@H]1C(=O)O)C(=O)NCCCCN=C(N)N  inactive
6     Cc1ccc(OCC(=O)N2CCC(N3CCCCCC3)CC2)cc1  inactive
7                          O=C(NO)c1ccccc1O  inactive
8          CC1(C)Cc2nc(N)c(C(=O)NCCO)cc2CO1  inactive

stdin: How was CCN=C1SC(C(=O)Nc2ccc(Cl)c(Cl)c2)CC(=O)N1CC (stereo unspecified) classified in this test?
stdout: inactive

stdin: How was N#CC1=C(SCC(=O)c2ccc(Cl)cc2)NC2=C(C(=O)CCC2)C1c1ccco1 (stereo unspecified) classified in this test?
stdout: active

stdin: How was COc1ccc(-c2cc(-c3ccccc3)n3ncnc3n2)cc1 classified in this test?
stdout: inactive

====

- assay_comment: inhibitors of Sendai virus-induced IRF3 signaling, primary screen, TLR/RLR signaling modifier project, cell-based, Sendai virus stimulus, luciferase, 10K MLSCN set (AID 602276);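 further: firefly luciferase from ISG56 promoter only with Renilla not read in this screen; 0% = Sendai virus plus DMSO and 100% = medium plus DMSO without virus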
- condition_parameters: HEK293 RL24 IRF3 luciferase reporter, at 10 µM, stronger effect = higher value
measured_property: inhibition (%)
Response body: numeric value in %, unit text excluded.

Some solved entries appear below for comparison.
compound	inhibition, %
Cc1ccc(N(CC(O)CN2CCCC2)S(=O)(=O)c2ccc(C)cc2)cc1 (centres undefined)	-14.3
CN1C(C(=O)Nc2ccccn2)=C(O)c2ccccc2S1(=O)=O	-0.169
CCCCC(=O)Nc1c(O)c2ccccc2[nH]c1=O	2.04
CC(CN1c2ccccc2Sc2ccccc21)N(C)C (centres undefined)	5.11
CN1[C@@H](CC(=O)c2ccccc2)CCC[C@H]1C[C@H](O)c1ccccc1	8
Cc1cc(Cn2ccnc2)c(C)cc1Cn1ccnc1	19.2
CC(=O)O[C@]1(C(C)=O)CC[C@H]2[C@@H]3C[C@H](C)C4=CC(=O)CC[C@]4(C)[C@H]3CC[C@@]21C	8.39
c1ccc2c(CC3=NCCN3)cccc2c1	12.4

inhibition reading for C[C@]12C=CC(=O)C=C1CC[C@@H]1[C@@H]2[C@@H](O)C[C@@]2(C)[C@H]1CC[C@]2(O)C(=O)COC(=O)CCC(=O)O : 6.58

inhibition reading for CCN1CCN(c2cc3c(cc2F)c(=O)c(C(=O)O)cn3C2CC2)CC1 : 1.29

inhibition reading for N#CCc1nc2c3c4c(sc3ncn2n1)CCCC4 : 5.18

====

# inhibition per entry
- system_tested: Dual specificity protein phosphatase 6 (Homo sapiens) (UniProt Q16828)
- Sequence (Q16828 whole entry, looked up): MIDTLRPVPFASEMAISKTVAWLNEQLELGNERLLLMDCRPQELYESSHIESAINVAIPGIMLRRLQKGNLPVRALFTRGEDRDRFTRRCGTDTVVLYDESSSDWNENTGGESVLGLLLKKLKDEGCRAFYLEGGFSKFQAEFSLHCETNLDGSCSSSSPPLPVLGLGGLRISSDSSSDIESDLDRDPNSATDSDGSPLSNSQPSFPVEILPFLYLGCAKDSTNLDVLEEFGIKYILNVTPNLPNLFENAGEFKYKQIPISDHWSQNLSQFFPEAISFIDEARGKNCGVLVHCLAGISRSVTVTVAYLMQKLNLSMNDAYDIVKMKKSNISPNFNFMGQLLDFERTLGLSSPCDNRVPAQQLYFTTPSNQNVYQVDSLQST
- assay_comment: DUSP6 inhibitors restoring Erk phosphorylation by chemical complementation, primary imaging in DUSP6-transfected HeLa (AID 609);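 on inhibition: phospho-Erk level distribution per well compared with pooled transfected vehicle control wells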
- condition_parameters: HeLa MKP-3 transfected, phospho-Erk imaging KS statistic; at 10 µM; stronger effect = higher value; cells stimulated with TPA for 15 min
Active and inactive are the calls of the source.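 The calls were made as follows: active = compounds giving at least 50% inhibition in the cell-based MKP-3 phosphatase rescue imaging test; inactive = the rest.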

> print(dat)
                                   molecule            result
1  OC1(c2cccc(C(F)(F)F)c2)CCN(c2ncnc3c2[nH]c2ccccc23)CC1  34.7% (inactive)

inhibition reading for COCCOC(=O)C1=C(C)NC(C)=C(C(=O)OC(C)C)C1c1cccc([N+](=O)[O-])c1 (stereo not drawn) : 32.3% (inactive)

inhibition reading for N/C(CCN1CCCCC1)=N/O : -4.27% (inactive)

inhibition reading for CC(C)Oc1ccc(/C(O)=C2/C(=O)C(=O)N(CCN3CCOCC3)C2c2ccccc2)cc1 (stereo not drawn) : -1.12% (inactive)

inhibition reading for O=C(CNC1=NCCC1)c1ccc2c(c1)OCCO2 : 28.6% (inactive)

inhibition reading for Oc1c(Cl)cc(Cl)cc1CNc1ccc(Br)cn1 : -3.5% (inactive)

====

# fluorescence slope per entry
- system_tested: Voltage-gated potassium channel subunit beta-2 (Rattus norvegicus) (UniProt P62483)
- Sequence (P62483 whole entry, looked up): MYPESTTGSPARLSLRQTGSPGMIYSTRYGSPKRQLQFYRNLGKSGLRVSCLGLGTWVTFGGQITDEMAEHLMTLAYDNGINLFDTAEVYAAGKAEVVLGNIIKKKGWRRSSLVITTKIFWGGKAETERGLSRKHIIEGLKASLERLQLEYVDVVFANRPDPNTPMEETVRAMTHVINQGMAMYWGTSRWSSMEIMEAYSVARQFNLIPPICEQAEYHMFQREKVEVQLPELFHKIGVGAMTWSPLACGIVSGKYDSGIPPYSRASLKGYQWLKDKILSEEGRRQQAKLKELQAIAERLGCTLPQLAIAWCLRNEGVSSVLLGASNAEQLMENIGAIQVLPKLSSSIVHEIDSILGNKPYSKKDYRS
- assay_comment: KvBeta enzyme negative modulators, primary screen, biochemical, NADPH fluorescence (AID 622);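 further: slope of raw intensity against log time taken from 70 to 1610 s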
- condition_parameters: recombinant KvBeta, 4-cyanobenzaldehyde reduction, at 10 µM, stronger effect = higher value
// return just the number, without any unit appended

Some solved entries appear below for comparison.
> print(dat)
                                   compound   measured.property  measured.number
1    CCOc1ccc(C2=Nn3c(nnc3-c3cccnc3)SC2)cc1  fluorescence slope           -0.414
2  Cc1nc(SCC(N)=O)[nH]c(=O)c1Cc1ccc(OC(C)C)cc1  fluorescence slope           -0.331
3                         O=C(O)CCCc1ccccc1  fluorescence slope           -0.549
4  Cc1c(/C(O)=C2/C(=O)C(=O)N(CCN3CCOCC3)C2c2cccnc2)cnn1-c1ccccc1 (configuration not stated)  fluorescence slope           -0.602
5  COc1ccc(OC)c(C2/C(=C(/O)c3ccc(C)cc3)C(=O)C(=O)N2Cc2ccco2)c1 (configuration not stated)  fluorescence slope           -0.568
6  O=C(O)CCCCCCC1C(=O)NC(=O)N1CCC(O)C1CCCCC1 (configuration not stated)  fluorescence slope           -0.507
7             CCCCNC(=O)N(C)c1nncnc1C(=O)NC  fluorescence slope            -0.37
8           Cc1cc(NS(=O)(=O)c2ccc(N)cc2)no1  fluorescence slope           -0.445

# value of fluorescence slope, Voltage-gated potassium channel subunit beta-2 (Rattus norvegicus) (UniProt P62483), item CSc1nc(NC(C)=O)nc(C)c1Cl = -0.343

# value of fluorescence slope, Voltage-gated potassium channel subunit beta-2 (Rattus norvegicus) (UniProt P62483), item O=C(O)CCSc1ccc2ccccc2n1 = -0.49

# value of fluorescence slope, Voltage-gated potassium channel subunit beta-2 (Rattus norvegicus) (UniProt P62483), item O=C(c1cncc(Br)c1)N1CCCc2ccccc21 = -0.448

# value of fluorescence slope, Voltage-gated potassium channel subunit beta-2 (Rattus norvegicus) (UniProt P62483), item C=CCn1c(N)c(C(=O)OC(C)(C)C)c2nc3ccccc3nc21 = -0.257

====

# slope per entry
- system_tested: Alpha-2C adrenergic receptor (Homo sapiens) (UniProt P18825)
- Sequence (P18825 whole entry, looked up): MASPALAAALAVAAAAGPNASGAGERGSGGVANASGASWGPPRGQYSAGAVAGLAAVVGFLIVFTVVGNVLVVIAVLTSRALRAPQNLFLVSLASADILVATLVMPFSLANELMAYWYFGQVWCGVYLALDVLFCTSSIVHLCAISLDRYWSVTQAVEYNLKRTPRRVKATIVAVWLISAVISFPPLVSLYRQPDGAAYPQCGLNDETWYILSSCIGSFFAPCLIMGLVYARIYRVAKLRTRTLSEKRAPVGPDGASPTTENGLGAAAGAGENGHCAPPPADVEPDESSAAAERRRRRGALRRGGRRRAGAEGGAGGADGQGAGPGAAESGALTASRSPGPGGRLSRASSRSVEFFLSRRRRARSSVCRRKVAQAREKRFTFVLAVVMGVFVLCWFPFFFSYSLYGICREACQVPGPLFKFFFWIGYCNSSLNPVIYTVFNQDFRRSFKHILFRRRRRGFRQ
- assay_comment: modulators of alpha2C/GIRK thallium flux, primary screen, cell-based, HEK293 alpha2C/GIRK1/2 (AID 624);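 further: slope of fluorescence ratio to pre-addition baseline per second over 15 to 24 s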
- condition_parameters: thallium flux BTC fluorescence, at 10 µM, actives lie on both sides
// return just the number, without any unit appended

Some solved entries appear below for comparison.
compound	measured_number
O=C(CCC1CCCC1)N1CCC(N2CCN(c3ccccc3)CC2)CC1	0.00549
Cn1c(=O)c2c(nc(NCc3ccc4c(c3)OCO4)n2Cc2ccc(F)cc2)n(C)c1=O	0.00456
Cc1c(CCC#N)c(N2CCN(C3CCCCC3)CC2)n2c(nc3ccccc32)c1C#N	0.00599
COC(=O)C(NC(C)=O)(Nc1ccccc1)C(=O)OC	0.00504
CCCOC(=O)C1[C@H]2C(=O)N(Cc3ccco3)C[C@]23C=C[C@H]1O3 (stereo partly specified)	0.00455

slope reading for Nc1nc(F)nc2c1ncn2[C@@H]1O[C@H](CO)[C@@H](O)[C@@H]1O : 0.00434

slope reading for Fc1cnc(N2CCOCC2)nc1NCc1ccccc1 : 0.00592

slope reading for C#CCSC1=C(C#N)C(c2cccs2)C(C(=O)OCC)=C(C)N1 (stereo unspecified) : 0.00405

slope reading for COc1ccc(-c2ncncc2-c2csc(C)n2)c(O)c1 : 0.00463

slope reading for CCCCOC(=O)CSc1nc(N)c(C#N)c(-c2ccc(OC)cc2)c1C#N : 0.00456

slope reading for C=CCOC(=O)C1=C(C)NC(SCC(=O)N(CC)CC)=C(C#N)C1c1ccco1 (stereo unspecified) : 0.00442

slope reading for CC(C)(C)c1ccc(C(O)CCCN2CCC(C(O)(c3ccccc3)c3ccccc3)CC2)cc1 (stereo unspecified) : 0.00381
